Ref: patent US6987093B2

# Assay Info: Azithromycin serum pharmacokinetics in mice
# Type: in vivo, mouse
# Measurement Conditions: female, CF-1, mouse; Serum PK; total dose 100 mg/kg oral; 1 day of dosing, 100 mg/kg/dose
Property Measured: Cmax (ng/mL)

INSERT INTO assay_data (cpd_smiles, property_measured, reading) VALUES
  ('CC[C@H]1OC(=O)[C@H](C)[C@@H](O[C@H]2C[C@@](C)(OC)[C@@H](O)[C@H](C)O2)[C@H](C)[C@@H](O[C@@H]2O[C@H](C)C[C@H](N(C)C)[C@H]2O)[C@](C)(O)C[C@@H](C)CN(C)[C@H](C)[C@@H](O)[C@]1(C)O', 'Cmax', 2100);

###

# Assay Info: Azithromycin serum pharmacokinetics in mice
# Format: in vivo, mouse
# Measurement Conditions: female, CF-1, mouse; Serum PK; total dose 100 mg/kg oral; 2 days of dosing, 50 mg/kg/dose
Property Measured: Tmax

INSERT INTO results (cpd_smiles, reading) VALUES
  ('CC[C@H]1OC(=O)[C@H](C)[C@@H](O[C@H]2C[C@@](C)(OC)[C@@H](O)[C@H](C)O2)[C@H](C)[C@@H](O[C@@H]2O[C@H](C)C[C@H](N(C)C)[C@H]2O)[C@](C)(O)C[C@@H](C)CN(C)[C@H](C)[C@@H](O)[C@]1(C)O', '26 h');

###

# Assay Info: Azithromycin serum pharmacokinetics in mice
# Format: in vivo, mouse
# Measurement Conditions: female, CF-1, mouse; Serum PK; total dose 100 mg/kg oral; 1 day of dosing, 100 mg/kg/dose
Property Measured: Tmax

INSERT INTO assay_data (cpd_smiles, reading) VALUES
  ('CC[C@H]1OC(=O)[C@H](C)[C@@H](O[C@H]2C[C@@](C)(OC)[C@@H](O)[C@H](C)O2)[C@H](C)[C@@H](O[C@@H]2O[C@H](C)C[C@H](N(C)C)[C@H]2O)[C@](C)(O)C[C@@H](C)CN(C)[C@H](C)[C@@H](O)[C@]1(C)O', '2 h');

###

# Assay Info: Azithromycin pulmonary tissue pharmacokinetics in mice
# Type: in vivo
# Measurement Conditions: female, CF-1, mouse, lung (pulmonary tissue), 33 mg/kg; Pulmonary PK; total dose 100 mg/kg oral; 3 days of dosing, 33.3 mg/kg/dose
Property Measured: Tmax (h)

INSERT INTO assay_data (cpd_smiles, property_measured, reading) VALUES
  ('CC[C@H]1OC(=O)[C@H](C)[C@@H](O[C@H]2C[C@@](C)(OC)[C@@H](O)[C@H](C)O2)[C@H](C)[C@@H](O[C@@H]2O[C@H](C)C[C@H](N(C)C)[C@H]2O)[C@](C)(O)C[C@@H](C)CN(C)[C@H](C)[C@@H](O)[C@]1(C)O', 'Tmax', 12);

###

# Assay Info: Azithromycin serum pharmacokinetics in mice
# Format: in vivo, mouse
# Measurement Conditions: female, CF-1, mouse; Serum PK; total dose 100 mg/kg oral; 2 days of dosing, 50 mg/kg/dose; read-out: AUC(0-tlast)
Property Measured: AUC(0-t) (ng·h/mL)

INSERT INTO assay_data (compound, reading) VALUES
  ('CC[C@H]1OC(=O)[C@H](C)[C@@H](O[C@H]2C[C@@](C)(OC)[C@@H](O)[C@H](C)O2)[C@H](C)[C@@H](O[C@@H]2O[C@H](C)C[C@H](N(C)C)[C@H]2O)[C@](C)(O)C[C@@H](C)CN(C)[C@H](C)[C@@H](O)[C@]1(C)O [Azithromycin]', 15900);
